Source listed as patent US20250263778A1.

TARGET_OR_SYSTEM: T1, human LRP8 (Low-density lipoprotein receptor-related protein 8), biotinylated (human, UniProt Q14114 33-826, limits assumed, biotinylated)
T1 construct: also called hu-antigen; human antigen
T1 sequence (Q14114 33-826 limits assumed): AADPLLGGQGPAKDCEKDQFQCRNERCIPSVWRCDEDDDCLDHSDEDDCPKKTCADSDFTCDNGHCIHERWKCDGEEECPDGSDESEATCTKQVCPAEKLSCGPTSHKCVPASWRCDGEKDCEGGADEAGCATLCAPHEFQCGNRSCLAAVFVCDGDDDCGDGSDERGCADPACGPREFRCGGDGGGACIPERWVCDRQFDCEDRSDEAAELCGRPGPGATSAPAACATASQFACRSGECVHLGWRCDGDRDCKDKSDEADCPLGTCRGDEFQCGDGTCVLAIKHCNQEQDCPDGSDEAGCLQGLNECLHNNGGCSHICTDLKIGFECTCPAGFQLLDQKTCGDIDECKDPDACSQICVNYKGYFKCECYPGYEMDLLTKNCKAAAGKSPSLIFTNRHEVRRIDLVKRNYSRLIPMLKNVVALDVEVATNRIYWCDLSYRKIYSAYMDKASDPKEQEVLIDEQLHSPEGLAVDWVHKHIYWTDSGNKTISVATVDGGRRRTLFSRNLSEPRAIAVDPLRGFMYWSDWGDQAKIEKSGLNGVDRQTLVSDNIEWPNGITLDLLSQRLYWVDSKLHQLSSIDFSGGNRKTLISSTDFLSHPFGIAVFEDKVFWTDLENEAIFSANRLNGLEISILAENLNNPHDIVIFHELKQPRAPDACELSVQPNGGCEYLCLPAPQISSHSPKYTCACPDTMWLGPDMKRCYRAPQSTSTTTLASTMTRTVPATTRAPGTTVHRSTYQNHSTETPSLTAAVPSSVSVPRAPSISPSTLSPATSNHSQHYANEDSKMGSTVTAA
TEST_DESCRIPTION: ELISA, biotinylated human LRP8

BINDER	EC50
BCC.763-2 (antibody, V domains shown, recombinant rabbit IgG, kappa; Positions are Wolfguy indices; tie inferred; also called VH variant 2103:7194:16368 1:N:0:1) VH: CQSVEESGGRLVTPGTPLTLTCTASGFSLSSYNMNWVRQAPGKGLAWIGYINKGGSAYYASWAKGRFTISKTSTTVDLKMTSPTTEDTATYFCVRSGGGGNLNLWGQGTLVTVSS VL: AAVLTQTPSPVSAAVGGTVTISCQSSPNILGNYLSWFQQKPGQPPKLLIYYTSTLASGVPSRFKGSGSGTQFTLTISDVQCDDAATYYCLGVYRSDSDNVFGGGTEVVVK	< 0.02 µg/mL
BCC.763 (antibody, V domains shown, Rabbit IgG, kappa; also called antibody 763) VH: CQSVEESGGRLVTPGTPLTLTCTASGFSLSSYNMNWVRQAPGKGLEWIGYINKGGSAYYASWAKGRFTISRTSTTVDLKMTSPTTEDTATYFCVRSGGGGNLNLWGQGTLVTVSS VL: AAVLTQTPSPVSAAVGGTVTISCQSSPNILGNYLSWFQQKPGQPPKLLIYYTSTLASGVPSRFKGSGSGTQFTLTISDVQCDDAATYYCLGVYRSDSDNVFGGGTEVVVK	< 0.02 µg/mL
BCC.763-1 (antibody, V domains shown, recombinant rabbit IgG, kappa; Positions are Wolfguy indices, not positions on the entry; tie inferred) VH: CQSVEESGGRLVTPGTPLTLTCTASGFSLSSYNMNWVRQAPGKGLEWIGYINKGGSAYYASWAKGRFTISRTSTTVDLKMTSPTPEDTATYFCVRSGGGGNLNLWGQGTLVTVSS VL: AAVLTQTPSPVSAAVGGTVTISCQSSPNILGNYLSWFQQKPGQPPKLLIYYTSTLASGVPSRFKGSGSGTQFTLTISDVQCDDAATYYCLGVYRSDSDNVFGGGTEVVVK	< 0.02 µg/mL
BCC.763-4 (antibody, V domains shown, recombinant rabbit IgG, kappa; Positions are Wolfguy indices; tie inferred; copies: 2 + 2) VH: CQSVEESGGRLVTPGTPLTLTCTASGFSLSSYNMNWVRQAPGKGLEWIGYINKGGSAYDANWAKGRFTISRTSTTVDLKMTSPTPEDTATYFCVRSGGGGNLNLWGQGTLVTVSS VL: AAVLTQTPSPVSAAVGGTVTISCQSSPNILGNYLSWFQQKPGQPPKLLIYYTSTLASGVPSRFKGSGSGTQFTLTISDVQCDDAATYYCLGVYRSDSDNVFGGGTEVVVK	< 0.05 µg/mL
